Test system: DU-145 prostate
Test: NCI tumour cell line growth inhibition, 48 h
Recorded TGI values for a group of compounds are listed next.
endpoint.name: TGI

1) N=C(N)c1nn(C2OC(CO)C(O)C2O)c2nc[nH]c(=O)c12 (centres undefined)    0.78 µM
2) O=C1NC(N2CCOCC2)=N/C1=C\c1cccs1    > 100 µM
3) CC1C2CC(CC(=O)N2)C1(C)C (centres undefined)    > 100 µM
4) CC[C@H](Nc1nc(N)nc(C)c1C#N)c1nc2cccc(CN(C)c3ncc(C(=O)NO)cn3)c2c(=O)n1-c1ccccc1    > 16.7 µM

----------
System: LOX IMVI melanoma
Assay: NCI tumour cell line growth inhibition, 48 h
Here, each record is paired with measured TGI data.
endpoint.name: TGI

1. O=C(CCl)c1ccc([N+](=O)[O-])o1    3.19 µM
2. COc1cc(/C=C\c2ccccn2)cc(OC)c1OC    > 100 µM
3. C/C(CN1C(=O)c2ccccc2C1=O)=N\NS(=O)(=O)c1ccc(Br)cc1    > 100 µM

----------
// TGI lookup, one value per entry
Test system: CCRF-CEM leukemia
Experiment: NCI tumour cell line growth inhibition, 48 h
endpoint.name: TGI

1) O=C(Nc1cccc(Cl)c1)Nc1ncc(CCNc2ncnc3ccsc23)s1    > 100 µM
2) C/C(CN1C(=O)c2ccccc2C1=O)=N\NS(=O)(=O)c1ccc(Br)cc1    > 100 µM
3) CCOC(=O)/C(N=Nc1ccc(-n2c(C)nc3ccccc3c2=O)cc1)=C(/C)O    > 100 µM

----------
Test system: HCT-116 colon
Experiment: NCI tumour cell line growth inhibition, 48 h
List of TGI values.
endpoint.name: TGI (µM)

1. NC(=O)[C@H]1CCN(c2ncnc(N)c2F)C[C@@H]1N1CCC[C@@H](Nc2cc(Cl)cc(C(F)(F)F)c2)C1=O    43
2. COc1cccc(OC(=O)c2ccccc2Nc2ccnc(C(F)(F)F)c2)c1    3.07

----------
System: SNB-75 CNS
Experiment: NCI tumour cell line growth inhibition, 48 h
Listed compounds paired with reported TGI
endpoint.name: TGI (µM)

1. N=C(N)c1nn(C2OC(CO)C(O)C2O)c2nc[nH]c(=O)c12 (stereo not given)    7.27
2. CC[C@H](Nc1nc(N)nc(C)c1C#N)c1nc2cccc(CN(C)c3ncc(C(=O)NO)cn3)c2c(=O)n1-c1ccccc1    1.82
3. CC(C)OP(=O)(OC(C)C)C(C(C)C)N(C)/C(N)=N\C1=NC(C(F)(F)F)(C(F)(F)F)N=C(C(C(F)(F)F)C(F)(F)F)O1 (stereo not given)    11.9
4. Oc1ccccc1/C=N/Nc1nnc2c3ccccc3c3ccccc3c2n1    84.4
5. c1ccc(Nc2nnc(CSc3nc(-c4ccccc4)c(-c4ccccc4)[nH]3)s2)cc1    85.6
6. Cc1occc1C(=S)Nc1ccc(Cl)c(C(=O)OCC(F)(F)F)c1    49.4
7. CC12CCC(=O)C=C1CCC1C2CCC2(C)C(C(=O)Cn3cnc4c(=S)nc[nH]c43)CCC12 (stereo not given)    36.8
8. COc1ccc(-c2ccc(-c3ccc(C(=N)N)nc3)s2)cc1    2.88
9. CSc1nc2ccccc2c(=O)n1/N=C1\C(=O)N(CN2CCCCC2)c2ccc(Cl)cc21    58.4
10. CCN1C(=O)N(CC)C2C1NN=c1s/c(=C3\C(=O)N(C(C)C)c4ccccc43)c(=O)n12 (stereo not given)    20.9
11. O=C1c2cc3c(cc2CC12Cc1cc4c(cc1C2=O)CCCC4)CCCC3    53.4
12. Cc1nn2c(=O)c([N+](=O)[O-])c(/C=C/c3ccccc3)nc2s1    20.3
13. Nc1nc(/C=C\c2ccc([N+](=O)[O-])o2)nc(N2CCN(c3ccccc3)CC2)n1    47
14. Cc1cc(N2CCCCC2)nc(N(CCNc2ccnc3cc(Cl)ccc23)Cc2ccco2)n1    4.33
15. NC(=O)[C@H]1CCN(c2ncnc(N)c2F)C[C@@H]1N1CCC[C@@H](Nc2cc(Cl)cc(C(F)(F)F)c2)C1=O    39.1
16. CCCCc1ccc(Nc2nc(Cl)c3c(ncn3COCCOC(C)=O)n2)cc1    16.5
17. CCN(CC)c1ccc(/C=C/c2cc(C)c3ccccc3n2)cc1    9.4
18. COc1ccc(Cn2nc(-c3cc(OC)c(OC)c(OC)c3)c3c2CCc2cnoc2-3)cc1OC    5.64
19. O=C(NCCCCCCNC(=O)c1cccc2ccccc12)c1cccc2ccccc12    9.55

----------
System: NCI-H23 lung
Test: NCI tumour cell line growth inhibition, 48 h
Listed here: items and their measured TGI.
endpoint.name: TGI (µM)

1. COc1ccc(/C=C2/C(C)=NN(c3cccc(Cl)c3)/C2=N/c2nc3ccccc3s2)cc1    34.6
2. N#CC(C#N)=CN1CCN(C(=O)c2ccco2)C1=S    22.5
3. CCN(CC)CCOc1ccc(C(=C(C)c2ccc(Cl)cc2)c2ccc(OCCN(CC)CC)cc2)cc1    6.41
4. CCc1c(C)[nH]c(/C=C2\N=C(c3ccc[nH]3)C=C2OC)c1C    11.3

----------
Test system: 786-0 renal
Experiment: NCI tumour cell line growth inhibition, 48 h; in the data active means GI50 below about 0.43 µM; inactive means the rest
Labels: 1 = active, 0 = inactive

1. CC(=O)[O][Pb]([O]C(C)=O)([c]1ccccc1)[c]1ccccc1    0
2. O=C(CCl)c1ccc([N+](=O)[O-])o1    0
3. COc1cc(Cn2cc3c(c2)-c2oncc2CC3)cc(OC)c1OC    1
4. N#CC(C#N)=Cc1ccc(-c2ccc(-c3nc4ccccc4s3)cc2)o1    0
5. CCCN1C(=O)/C(=c2\sc3n(c2=O)C2C(NN=3)N(CC)C(=O)N2CC)c2ccccc21 (configuration not stated)    0
6. c1ccc2nc(Cn3c[n+](Cc4ccc5ccccc5n4)c4ccccc43)ccc2c1    0
7. CC12CCC(=O)C(O1)C1C(=O)c3cc4ccccc4cc3C(=O)C12 (configuration not stated)    0

----------
Each item that follows carries a reported TGI.
System: EKVX NSCLC
Assay: NCI tumour cell line growth inhibition, 48 h
endpoint.name: TGI

1. CCN1C(=O)N(CC)C2C1NN=c1s/c(=C3\C(=O)N(C(C)C)c4ccccc43)c(=O)n12 (stereo not drawn)    > 100 µM
2. CCOC(=O)Cc1c[nH]c(=S)[nH]c1=O    > 100 µM
3. O=c1c2cc(S(=O)(=O)Nc3ccccc3Cl)ccc2ncn1NS(=O)(=O)c1ccc(Br)cc1    > 37.5 µM

----------
# Lookup of reported TGI keyed by entry
Test system: MALME-3M melanoma
Test: NCI tumour cell line growth inhibition, 48 h
endpoint.name: TGI

1) O=C1c2cc3c(cc2CC12Cc1cc4c(cc1C2=O)CCCC4)CCCC3    > 100 µM
2) Cc1ccc(C(=O)Nc2ccc(S(=O)(=O)O)c3cc(S(=O)(=O)O)cc(S(=O)(=O)O)c23)cc1NC(=O)c1cccc(N)c1    > 100 µM
3) CC#COP(=O)(OCC)OCC    > 100 µM

----------
Test system: T-47D breast
Test: NCI tumour cell line growth inhibition, 48 h
endpoint.name: TGI (µM)

1. CC(C)OP(=O)(OC(C)C)C(C(C)C)N(C)/C(N)=N\C1=NC(C(F)(F)F)(C(F)(F)F)N=C(C(C(F)(F)F)C(F)(F)F)O1 (stereo not drawn)    31.3
2. N#CC1(C#N)C2CCCCC23OC(=N)C1(C#N)C(c1ccco1)O3 (stereo not drawn)    51.8
3. CN(C)c1ccc2nc3ccc(=[N+](C)C)cc-3oc2c1    6.59
4. N=C(N)c1nn(C2OC(CO)C(O)C2O)c2nc[nH]c(=O)c12 (stereo not drawn)    2.71
5. O=C(CCl)c1ccc([N+](=O)[O-])o1    4.78
6. C=C(C)[C@@H]1CC[C@]2(C(=O)NCCCN)CC[C@]3(C)[C@H](CC[C@@H]4[C@@]5(C)CC[C@H](O)C(C)(C)[C@@H]5CC[C@]43C)[C@@H]12    53.2
7. COc1ccc(C(=O)/C=C/c2ccc(Cl)cc2)cc1S(=O)(=O)Nc1c(N)nc(SC)[nH]c1=O    9.83
8. Nc1nc(/C=C\c2ccc([N+](=O)[O-])o2)nc(N2CCN(c3ccccc3)CC2)n1    60

----------
Tested on: RPMI-8226 leukemia
Experiment: NCI tumour cell line growth inhibition, 48 h
# TGI values compiled below
endpoint.name: TGI

1. O=c1c2cc(S(=O)(=O)Nc3ccccc3Cl)ccc2ncn1NS(=O)(=O)c1ccc(Br)cc1    > 37.5 µM
2. Cn1c(O)c(C(=O)Nc2cccs2)c(=O)[nH]c1=S    49.1 µM
3. COc1ccc(OC)c2sc(N3C(=O)/C(=C/Cc4ccco4)N=C3c3ccccc3)nc12    > 100 µM
4. O=C1CSC2(CC(/C=C/c3ccccc3O)=NN2c2cccc(S(=O)(=O)O)c2)N1c1nc2ccccc2s1 (stereo unspecified)    42.1 µM
5. CCOC(=O)C=C1CCN(C(=O)c2ccccc2)CC1    > 100 µM
6. COc1cc(/C=C\c2ccccn2)cc(OC)c1OC    > 100 µM
7. CC(=O)[O][Pb]([O]C(C)=O)([c]1ccccc1)[c]1ccccc1    > 100 µM
8. C=C(C)[C@@H]1CC=C(CO)CC1    > 10 µM
9. COC(=O)c1[nH]c(=S)[nH]c(=O)c1-c1ccc(Cl)cc1    > 50 µM
10. O=c1n(/N=C/c2ccccc2)c(=O)n2n1C1C=CC2CC1    > 100 µM
11. O=C(CC1Sc2ccccc2NC1=O)Nc1cc(Cl)ccc1Cl (stereo unspecified)    > 100 µM
12. CC(C)=CCOc1cc(NC(=S)c2ccoc2C)ccc1Cl    > 100 µM
13. CC1=NC(=O)C(C)(c2ccccc2)N1CCc1ccccc1 (stereo unspecified)    > 100 µM
14. O=C1NC(N2CCOCC2)=N/C1=C\c1cccs1    > 100 µM
15. CCOC(=O)c1ccc(C(=O)OCC)n1-c1cc2cc(c1)CSCc1cc(cc(-n3c(C(=O)OCC)ccc3C(=O)OCC)c1)CSC2    > 10 µM
16. Nc1ncnc2c1ccn2C1OC2COP(=O)(O)OC2C1O (stereo unspecified)    > 100 µM
